Molecular target: Recombinant mTOR (FRAP1) (Homo sapiens)
Construct: purchased Invitrogen
Sequence (P42345 1360-2549 limits assumed): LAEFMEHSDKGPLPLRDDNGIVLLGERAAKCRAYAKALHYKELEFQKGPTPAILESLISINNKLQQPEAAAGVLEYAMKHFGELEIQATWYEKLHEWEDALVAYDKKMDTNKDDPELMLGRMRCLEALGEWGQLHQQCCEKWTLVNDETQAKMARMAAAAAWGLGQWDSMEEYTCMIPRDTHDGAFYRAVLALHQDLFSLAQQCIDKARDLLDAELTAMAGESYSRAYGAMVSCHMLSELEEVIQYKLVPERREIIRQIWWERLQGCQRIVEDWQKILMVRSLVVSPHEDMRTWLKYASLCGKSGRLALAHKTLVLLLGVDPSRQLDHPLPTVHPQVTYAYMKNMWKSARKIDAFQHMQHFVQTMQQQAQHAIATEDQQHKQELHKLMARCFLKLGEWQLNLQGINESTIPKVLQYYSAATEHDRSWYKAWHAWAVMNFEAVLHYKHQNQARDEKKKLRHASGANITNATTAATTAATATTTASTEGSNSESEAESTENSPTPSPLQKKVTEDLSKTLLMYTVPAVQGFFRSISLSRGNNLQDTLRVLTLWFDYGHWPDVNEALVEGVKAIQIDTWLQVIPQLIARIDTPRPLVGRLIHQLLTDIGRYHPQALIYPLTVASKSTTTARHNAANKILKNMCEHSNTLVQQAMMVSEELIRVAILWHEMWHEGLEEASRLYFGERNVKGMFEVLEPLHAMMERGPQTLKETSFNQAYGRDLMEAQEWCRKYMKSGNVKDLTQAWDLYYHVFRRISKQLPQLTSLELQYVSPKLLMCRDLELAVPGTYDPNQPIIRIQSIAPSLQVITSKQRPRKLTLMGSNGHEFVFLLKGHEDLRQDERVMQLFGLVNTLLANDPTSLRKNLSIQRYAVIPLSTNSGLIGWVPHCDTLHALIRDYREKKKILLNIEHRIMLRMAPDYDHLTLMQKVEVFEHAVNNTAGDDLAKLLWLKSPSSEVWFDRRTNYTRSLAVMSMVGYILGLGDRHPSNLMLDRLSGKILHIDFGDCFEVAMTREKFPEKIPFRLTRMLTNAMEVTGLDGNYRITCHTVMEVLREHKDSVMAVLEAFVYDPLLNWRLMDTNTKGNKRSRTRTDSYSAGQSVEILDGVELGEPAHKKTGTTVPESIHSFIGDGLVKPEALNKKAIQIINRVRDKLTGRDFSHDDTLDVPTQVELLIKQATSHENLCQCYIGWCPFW
Experiment: mTOR in vitro kinase assay (TR-FRET, phosphorylation of GFP-4E-BP1)
Assay type: biochemical
Conditions: 1 uM compound; read-out: mTOR % Inhib@1 uM
For each of the compounds below, state its inhibition at 1 µM.

Answered cases to consult:
                                   compound                        system_under_test  recorded_measurement
0  CN(C)C(=O)NC1CCN(c2nc(-c3ccc(N)nc3)nc(N3CCOCC3)n2)CC1  Recombinant mTOR (FRAP1) (Homo sapiens)                 < 50%
1  CNC(=O)Nc1ncc(-c2nc(NC)nc(N3CCOC[C@@H]3C)n2)s1  Recombinant mTOR (FRAP1) (Homo sapiens)                 < 50%
2  CS(=O)(=O)N1CCC(COc2nc(-c3cnc(N)s3)nc(N3CCOCC3)n2)C1 (stereo not shown)  Recombinant mTOR (FRAP1) (Homo sapiens)                 < 50%

Can you give me inhibition at 1 µM for all of these, one by one?
1. C[C@H]1COCCN1c1nc(Oc2ccc(C(=O)N(C)C)cc2F)nc(-c2ccc3[nH]ncc3c2)n1
2. CN(C)C(=O)c1cccc(Nc2nc(-c3cnc(N)s3)nc(N3CCOCC3)n2)c1
3. CNC(=O)Nc1ncc(-c2nc(Oc3ccc(C(=O)N(C)C)cc3)nc(N3CCOC[C@@H]3C)n2)s1
4. Cc1cc(Oc2nc(-c3ccc(N)nc3)nc(N3CCOCC3)n2)ccc1C(=O)N(C)C

a:
> 50%
< 50%
> 50%
> 50%

----------
Biological target: PI3 Kinase alpha (p110 alpha/p85 alpha) (Homo sapiens, UniProt P42336)
Sequence (P42336 whole entry): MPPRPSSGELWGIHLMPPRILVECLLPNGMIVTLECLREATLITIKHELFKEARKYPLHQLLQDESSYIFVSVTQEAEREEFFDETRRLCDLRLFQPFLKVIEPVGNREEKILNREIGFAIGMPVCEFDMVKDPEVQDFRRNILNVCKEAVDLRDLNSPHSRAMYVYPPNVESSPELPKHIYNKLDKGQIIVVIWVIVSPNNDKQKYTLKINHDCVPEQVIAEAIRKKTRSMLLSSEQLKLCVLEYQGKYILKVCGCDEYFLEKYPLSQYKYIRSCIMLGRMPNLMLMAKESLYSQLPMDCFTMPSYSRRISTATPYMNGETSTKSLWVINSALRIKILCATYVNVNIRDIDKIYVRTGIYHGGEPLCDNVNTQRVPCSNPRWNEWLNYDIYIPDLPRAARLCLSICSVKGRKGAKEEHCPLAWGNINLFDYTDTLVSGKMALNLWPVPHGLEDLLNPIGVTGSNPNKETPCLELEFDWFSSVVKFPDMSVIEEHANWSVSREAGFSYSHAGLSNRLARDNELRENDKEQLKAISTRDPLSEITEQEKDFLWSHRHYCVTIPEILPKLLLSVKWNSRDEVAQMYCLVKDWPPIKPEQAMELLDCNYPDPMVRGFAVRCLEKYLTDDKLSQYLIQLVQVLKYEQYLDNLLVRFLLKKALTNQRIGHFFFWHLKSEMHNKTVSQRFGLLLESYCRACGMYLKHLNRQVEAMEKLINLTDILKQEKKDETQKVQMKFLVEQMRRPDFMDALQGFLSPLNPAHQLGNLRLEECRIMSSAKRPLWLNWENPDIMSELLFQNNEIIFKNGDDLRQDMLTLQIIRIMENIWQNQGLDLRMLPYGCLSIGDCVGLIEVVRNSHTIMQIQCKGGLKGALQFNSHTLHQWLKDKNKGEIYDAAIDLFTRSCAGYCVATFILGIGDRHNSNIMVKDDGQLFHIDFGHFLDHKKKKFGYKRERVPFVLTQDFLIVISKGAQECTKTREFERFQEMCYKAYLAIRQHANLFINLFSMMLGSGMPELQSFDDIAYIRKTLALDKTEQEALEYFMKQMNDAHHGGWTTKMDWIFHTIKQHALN
Sequence (P27986 whole entry partner): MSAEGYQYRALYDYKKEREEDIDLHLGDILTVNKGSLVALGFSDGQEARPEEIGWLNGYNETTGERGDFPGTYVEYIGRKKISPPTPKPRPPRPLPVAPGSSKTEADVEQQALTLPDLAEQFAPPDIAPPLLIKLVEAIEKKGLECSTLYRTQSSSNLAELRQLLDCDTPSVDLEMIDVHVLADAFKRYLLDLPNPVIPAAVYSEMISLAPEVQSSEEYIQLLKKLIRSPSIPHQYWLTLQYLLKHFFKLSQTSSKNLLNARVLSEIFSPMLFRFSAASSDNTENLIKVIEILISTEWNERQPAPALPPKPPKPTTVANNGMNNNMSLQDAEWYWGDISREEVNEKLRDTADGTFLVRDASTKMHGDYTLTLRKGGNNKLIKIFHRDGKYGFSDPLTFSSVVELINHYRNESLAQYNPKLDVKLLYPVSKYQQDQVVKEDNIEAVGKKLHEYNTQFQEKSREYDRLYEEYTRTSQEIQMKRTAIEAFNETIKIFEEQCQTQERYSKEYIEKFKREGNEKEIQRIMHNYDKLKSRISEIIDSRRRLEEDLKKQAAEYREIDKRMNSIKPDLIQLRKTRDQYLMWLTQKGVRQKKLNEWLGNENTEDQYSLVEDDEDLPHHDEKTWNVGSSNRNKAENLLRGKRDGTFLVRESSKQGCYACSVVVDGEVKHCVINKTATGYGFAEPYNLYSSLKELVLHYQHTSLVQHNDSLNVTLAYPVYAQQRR
Assay: PI3K TR-FRET assay (Transcreener ADP2)
Settings: PI3K alpha, 1 μM ATP, 50 μM PIP2
endpoint_name: IC50

Answered cases to consult:
In [3]: df
Out[3]:
                                   compound                         system_under_test  endpoint_name  recorded_measurement
0  CN(C)C(=O)c1ccc(Oc2nc(-c3cnc(N)s3)nc(N3CCCCC3)n2)cc1 [Compound 10119]  PI3 Kinase alpha (p110 alpha/p85 alpha) (Homo sapiens, UniProt P42336)           IC50               > 10 µM
1  CN(C)C(=O)c1ccc(Oc2nc(-c3cnc(N)s3)nc(N3CCOCC3)n2)c(F)c1 [Compound 10022]  PI3 Kinase alpha (p110 alpha/p85 alpha) (Homo sapiens, UniProt P42336)           IC50                < 1 µM
2  Nc1ccc(-c2nc(SCc3ccccc3)nc(N3CCOCC3)n2)cn1 [Compound 10175]  PI3 Kinase alpha (p110 alpha/p85 alpha) (Homo sapiens, UniProt P42336)           IC50                < 1 µM

Can you give me IC50 for all of these, one by one?
1. CNC(=O)Nc1ncc(-c2nc(Oc3ccc(C(=O)N(C)C)cc3)nc(N3CCOC[C@@H]3C)n2)s1 [Compound 10091]
2. CN(C)C(=O)c1cccc(Oc2nc(-c3cnc(N)s3)nc(N3CCOCC3)n2)c1 [Compound 10195]
3. C[C@@H]1COCCN1c1nc(Oc2ccc(C(=O)N(C)C)cc2F)nc(-c2cnc(N)s2)n1 [Compound 10156]
4. CN(C)C(=O)N1CCC(COc2nc(-c3ccc(N)nc3)nc(N3CCOCC3)n2)C1 (stereo not shown) [Compound 10187]
5. CN(C)C(=O)c1ccc(Oc2nc(-c3ccc4[nH]ncc4c3)nc(N3CC4CCC(C3)O4)n2)c(F)c1 [Compound 10140]
6. CN(C)C(=O)c1ccc(Oc2nc(-c3cccc4[nH]ncc34)nc(N3[C@@H]4CC[C@H]3COC4)n2)cc1 [Compound 10174]
7. C[C@H]1COCCN1c1nc(Oc2ccc(C(=O)N(C)C)cc2)nc(-c2cnc3[nH]ccc3c2)n1 [Compound 10157]
8. CN(C)C(=O)N1CCC(Oc2nc(-c3cnc(N)s3)nc(N3CCOCC3)n2)CC1 [Compound 10003]

a:
< 1 µM
< 1 µM
3 µM
< 1 µM
> 10 µM
> 1 µM
< 1 µM
< 1 µM
